Biological target: Muscarinic acetylcholine receptor M2 (Homo sapiens, UniProt P08172); also: assay procedure not described here
Sequence (P08172 whole entry): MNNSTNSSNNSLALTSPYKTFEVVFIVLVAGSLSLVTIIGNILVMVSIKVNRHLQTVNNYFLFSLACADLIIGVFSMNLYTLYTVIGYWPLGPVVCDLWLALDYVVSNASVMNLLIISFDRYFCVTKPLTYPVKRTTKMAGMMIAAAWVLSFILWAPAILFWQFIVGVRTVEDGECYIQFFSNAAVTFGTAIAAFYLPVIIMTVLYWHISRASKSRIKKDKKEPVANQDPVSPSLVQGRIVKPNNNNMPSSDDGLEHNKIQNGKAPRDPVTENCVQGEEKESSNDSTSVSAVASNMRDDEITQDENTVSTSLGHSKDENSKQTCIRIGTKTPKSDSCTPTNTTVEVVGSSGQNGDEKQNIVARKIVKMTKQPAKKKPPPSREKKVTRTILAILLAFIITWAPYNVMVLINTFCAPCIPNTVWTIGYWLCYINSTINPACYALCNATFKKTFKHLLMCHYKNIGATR
Type: functional, cell-based
Exercise: state measured AC50 for each of the compounds provided.

Check out these entries, answers already filled in.
Compound	System Tested	AC50
C[C@]12CCC(=O)C=C1CC[C@@H]1[C@@H]2[C@@H](O)C[C@@]2(C)[C@H]1CC[C@]2(O)C(=O)CO [HYDROCORTISONE]	Muscarinic acetylcholine receptor M2 (Homo sapiens, UniProt P08172)	> 10 µM
COc1ccc(CC(C)(C)NC[C@H](O)c2cc(O)cc3c2OCC(=O)N3)cc1	Muscarinic acetylcholine receptor M2 (Homo sapiens, UniProt P08172)	> 30 µM
Nc1nc(NC2CC2)c2ncn([C@H]3C=C[C@@H](CO)C3)c2n1	Muscarinic acetylcholine receptor M2 (Homo sapiens, UniProt P08172)	> 30 µM
CC(C)(C)NCC(O)COc1cccc2c1CCC(=O)N2 (stereo not drawn)	Muscarinic acetylcholine receptor M2 (Homo sapiens, UniProt P08172)	> 10 µM
CCCC(=O)O[C@]1(C(=O)CO)CC[C@H]2[C@@H]3CCC4=CC(=O)CC[C@]4(C)[C@H]3[C@@H](O)C[C@@]21C [HYDROCORTISONE BUTYRATE]	Muscarinic acetylcholine receptor M2 (Homo sapiens, UniProt P08172)	> 10 µM

# return AC50 for each item in the list
1. COC(=O)C1=C(C)NC(C)=C(C(=O)OC2CCCN(Cc3ccccc3)C2)C1c1cccc([N+](=O)[O-])c1 (stereo not drawn)
2. O=C(O[C@H]1C[C@H]2CC[C@@H](C1)[N+]21CCCC1)C(O)(c1ccccc1)c1ccccc1
3. Cc1nnc2n1-c1ccc(Cl)cc1C(c1ccccc1Cl)=NC2

1: > 30 µM; 2: > 30 µM; 3: > 10 µM
